protocol: physchem
protocol_conditions: pH 8, aqueous buffer, kinetic from dmso stock
Would you mind telling me the reported solubility of each entry?

# compound, solubility
data = [
    ("NC[C@H](O)c1ccc(O)c(O)c1 [SKI 210170, Norepinephrine, reference compound]", "> 100 µM"),
    ("Oc1cc2c(cc1O)C1c3ccc(O)c(O)c3OCC1(O)C2 (stereo not drawn)", "> 100 µM"),
]

From here, focus on the item given below.
# input Would you mind telling me what solubility value was observed for N[C@@H](Cc1ccc(O)c(O)c1)C(=O)O [SKI 211511, Levodopa, reference compound] ?
# output > 100 µM

###

What follows is a record of IC50 for UniProtKB Q582T2.
Sequence (Q582T2 1-253): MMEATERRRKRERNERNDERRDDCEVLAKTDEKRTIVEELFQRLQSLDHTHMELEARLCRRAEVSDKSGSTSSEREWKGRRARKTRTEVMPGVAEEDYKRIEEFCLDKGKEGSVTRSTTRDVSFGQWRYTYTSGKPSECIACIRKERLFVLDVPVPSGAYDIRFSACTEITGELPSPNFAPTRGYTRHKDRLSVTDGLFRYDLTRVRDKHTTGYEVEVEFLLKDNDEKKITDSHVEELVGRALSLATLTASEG
Give bare numbers, in nM.

# compound, unit_annotation, IC50
rows = [
    ("O=c1c(O)c(-c2ccc(O)c(O)c2)oc2cc(O)ccc12", "nM", 2100),
]

Would you mind listing IC50 for each of the following compounds?
1. O=c1c(O)cccc2c([C@H]3Oc4cc(O)cc(O)c4C[C@H]3O)cc(O)c(O)c12
2. N[C@@H](Cc1ccc(O)c(O)c1)C(=O)O [SKI 211511, Levodopa, reference compound]
3. Oc1cc2c(cc1O)C1c3ccc(O)c(O)c3OCC1(O)C2 (stereo not shown)

# output
440
30
1700
